Tested on: TK-10 renal
measurement.description: NCI-60 one-dose screen, 48 h (100 = growth as untreated, 0 = no growth, -100 = all killed)
study.conditions: 10 µM
The panel holds about 83,000 compounds, 20% with a hit somewhere; the sample as a whole holds those more often. Activity calls are given as the source filed them. The calls were made as follows: active = growth percent below 10; inactive = the rest.
The following compounds are listed with their measured growth values.
measure.name: growth

compound="Cc1ccc(C(=O)C2C(=O)C3CCC2C3)cc1 (centres undefined)" target_desc="TK-10 renal" endpoint_result="111% (inactive)"
compound=CCn1c(CSc2nc3ccccc3c(=O)n2CCc2ccccc2)n[nH]c1=S target_desc="TK-10 renal" endpoint_result="98% (inactive)"
compound="COC(=O)C1(O)NC(=C(C#N)C#N)C(C#N)=C1C(=O)c1ccc(OC)c(OC)c1 (centres undefined)" target_desc="TK-10 renal" endpoint_result="122% (inactive)"
compound=O=C(Cn1cc(CO)nn1)Nc1nc2ccccc2s1 target_desc="TK-10 renal" endpoint_result="106% (inactive)"
compound="C#CC(C)(O)[C@@H]1C[C@H](CC(=O)O)C1(C)C (some centres undefined)" target_desc="TK-10 renal" endpoint_result="114% (inactive)"
compound="CCCCN(CCCC)C(=O)[C@H](CC)[C@@H]1CC[C@@H](C)[C@@H]([C@H](C)[C@@H](O)[C@@H](C)C(=O)[C@H](CC)C2O[C@]3(C=C[C@@H](O)[C@]4(CC[C@@](C)([C@H]5CC[C@](O)(CC)[C@H](C)O5)O4)O3)[C@H](C)C[C@@H]2C)O1 (some centres undefined)" target_desc="TK-10 renal" endpoint_result="18.6% (inactive)"
compound=Cc1cc(=O)n2nnc3cc(Cl)c(Cl)cc3n12 target_desc="TK-10 renal" endpoint_result="102% (inactive)"
compound=O=[N+]([O-])c1cc(Cl)cc(Cl)c1O target_desc="TK-10 renal" endpoint_result="95.1% (inactive)"
compound=CCn1c(SCc2ccc(C)cc2)nnc1-c1nn(-c2ccc(Cl)cc2Cl)c(-c2ccc(Cl)cc2)c1C target_desc="TK-10 renal" endpoint_result="18.1% (inactive)"

###

The following molecules are listed with their measured growth values.
Test system: 786-0 renal
measurement.description: NCI-60 one-dose screen, 48 h (100 = growth as untreated, 0 = no growth, -100 = all killed)
study.conditions: 10 µM
Compounds without any hit were thinned out: in the full panel of roughly 83,000, 20% have a hit. The source made the active and inactive calls. The calls were made as follows: active = growth percent below 10; inactive = the rest.
measure.name: growth

molecule=CN(C)c1ccc(/C=N/NC(=O)c2cccc3ccccc23)c(Cl)c1 target_desc="786-0 renal" endpoint_result="56.1% (inactive)"
molecule=O=C1c2ccccc2C(=O)N1CCCCNc1ccccc1 target_desc="786-0 renal" endpoint_result="63.7% (inactive)"
molecule=COc1ccc(-c2nn(-c3cccc(Cl)c3)cc2-c2c(C#N)c(=O)n3[nH]c(-c4ccccc4)nc3c2C#N)cc1 target_desc="786-0 renal" endpoint_result="89.4% (inactive)"
molecule=S=c1cnc2ccccc2[nH]1 target_desc="786-0 renal" endpoint_result="98.9% (inactive)"
molecule="CN(C)CCC1(c2ccccc2)CCN(C)C1=O (stereo unspecified)" target_desc="786-0 renal" endpoint_result="109% (inactive)"
molecule=Cc1ccc(/C=C2/C(=O)N(C)c3ccc(S(=O)(=O)Nc4ccc(C(C)(C)C)cc4)cc32)s1 target_desc="786-0 renal" endpoint_result="67.4% (inactive)"
molecule=O=C1Cc2cc(CCN3CCN(c4nsc5ccccc45)CC3)c(Cl)cc2N1 target_desc="786-0 renal" endpoint_result="106% (inactive)"
molecule=c1ccc2c(c1)Cc1ccccc1N2CCN1CCCCC1 target_desc="786-0 renal" endpoint_result="95.3% (inactive)"
molecule="C1CN(CC2CCC(CN3CCOCC3)O2)CCO1 (stereo unspecified)" target_desc="786-0 renal" endpoint_result="99.7% (inactive)"
molecule="COc1cc(CNC(=O)C2CSC3(C)c4ccccc4C(=O)N23)cc(OC)c1OC (stereo unspecified)" target_desc="786-0 renal" endpoint_result="102% (inactive)"
molecule=CC(C)(C)c1ccc(S(=O)(=O)Oc2ccc(NC(=O)C3CCCCC3)cc2)cc1 target_desc="786-0 renal" endpoint_result="55.4% (inactive)"

###

System: HCT-116 colon
measurement.description: NCI-60 one-dose screen, 48 h
study.conditions: 10 µM
This is part of a sample that, as a whole, favours compounds with a hit. Of some 83,000 tested, about 20% had one in any assay. The source made the active and inactive calls. How the source made its calls: active means growth percent below 10; inactive means the rest.
Labels: 1 (yes) = active, 0 (no) = inactive

molecule=Nc1nc(N)c(N)c(Nc2ccc(CCO)cc2)n1 target_desc="HCT-116 colon" classification="0 (no)"
molecule=Cc1nc2n(c(=O)c1CCN1CCC(c3noc4cc(F)ccc34)CC1)CCC[C@@H]2O target_desc="HCT-116 colon" classification="0 (no)"
molecule=C=C(C)[C@@H]1CC[C@]2(COCCC#N)CC[C@]3(C)[C@H](CC[C@@H]4[C@@]5(C)Cc6c([nH]c7ccccc67)C(C)(C)[C@@H]5CC[C@]43C)[C@@H]12 target_desc="HCT-116 colon" classification="0 (no)"
molecule=COc1ccc2nc3cc(Cl)ccc3c(N)c2c1 target_desc="HCT-116 colon" classification="1 (yes)"
molecule="Cc1ccc(C(=O)C2C(=O)C3CCC2C3)cc1 (centres undefined)" target_desc="HCT-116 colon" classification="0 (no)"
molecule="CC(=O)OC1CC2C(C)(C)CCC[C@]2(C)C2=C1C(O)=C(C(C)C)C(=O)C2=O (some centres undefined)" target_desc="HCT-116 colon" classification="1 (yes)"
molecule="COc1ccc(C2CC(c3cccs3)=NN2c2ccc(S(N)(=O)=O)cc2)cc1 (centres undefined)" target_desc="HCT-116 colon" classification="0 (no)"
molecule=COc1cc(C(=O)/C(C)=C/c2c[nH]c3ccccc23)cc(OC)c1OC target_desc="HCT-116 colon" classification="1 (yes)"
molecule="OC(CNc1ccnc2cc(Cl)ccc12)CNC1CCCCC1 (centres undefined)" target_desc="HCT-116 colon" classification="0 (no)"
molecule=N#Cc1c(-c2ccc(Cl)cc2)csc1NC(=O)Nc1ccc(Cl)c(C(F)(F)F)c1 target_desc="HCT-116 colon" classification="1 (yes)"
molecule="Cc1ccc(NCCN(C)CC(C)O)c2c(=O)c3ccc(Cl)cc3sc12 (centres undefined)" target_desc="HCT-116 colon" classification="1 (yes)"
molecule=COc1ccccc1N1CCCSC1=Nc1ccccc1 target_desc="HCT-116 colon" classification="0 (no)"
molecule="O=C(Nc1cc(Cl)cc2c1-c1ccc(Cl)cc1C2O)C(Cl)Cl (centres undefined)" target_desc="HCT-116 colon" classification="0 (no)"
molecule=Cc1cc(CCNC=O)c(C)c2c1sc1ccccc12 target_desc="HCT-116 colon" classification="0 (no)"
molecule=COc1cc(-c2nn(-c3cccc(NC(=O)NCCNS(=O)(=O)c4ccc(Cl)cc4)c3)cc2-c2ccncc2)ccc1Cl target_desc="HCT-116 colon" classification="1 (yes)"
molecule="COc1ccc(C(c2ccc(OCCN(C)C)cc2)c2cc3ccccc3c3ccccc23)cc1 (centres undefined)" target_desc="HCT-116 colon" classification="1 (yes)"
molecule=COc1ccc(-c2n[nH]nc2-c2cc(OC)c3c(c2OC)OCO3)cc1 target_desc="HCT-116 colon" classification="0 (no)"
molecule=C[C@]12CC[C@@H]3c4ccc(OS(=O)(=O)O)cc4CC[C@H]3[C@@H]1CC[C@@H]2NS(=O)(=O)c1ccc(-c2ccccc2)cc1 target_desc="HCT-116 colon" classification="0 (no)"
molecule="C=C(NC(=O)C(=C)NC(=O)c1csc(C2=NC3c4csc(n4)C4NC(=O)c5csc(n5)C(C(C)(O)C(C)O)NC(=O)C5CSC(=N5)C(=CC)NC(=O)C(C(C)O)NC(=O)c5csc(n5)C3(CC2)NC(=O)C(C)NC(=O)C(=C)NC(=O)C(C)NC(=O)C(C(C)CC)NC2C=Cc3c(C(C)O)cc(nc3C2O)C(=O)OC4C)n1)C(N)=O (centres undefined)" target_desc="HCT-116 colon" classification="1 (yes)"
molecule=CCOS(=O)(=O)c1c(C(C)C)cc(C(C)C)cc1C(C)C target_desc="HCT-116 colon" classification="0 (no)"
molecule=CCOC(=O)c1sc2ncnc(Nc3ccc4c(cnn4C(=O)Nc4ccc(C)c(Cl)c4)c3)c2c1C target_desc="HCT-116 colon" classification="0 (no)"
molecule=COc1ccc(C2=Cn3c(CCC(=O)c4nc5ccccc5[nH]4)nnc3SC2)cc1 target_desc="HCT-116 colon" classification="0 (no)"
molecule=O=C1/C=C/[C@@H](O)[C@@H]2C[C@@H](O)C[C@H]2/C=C/CCC[C@@H](C(F)(F)F)O1 target_desc="HCT-116 colon" classification="0 (no)"
molecule=Oc1ccc(-c2[nH]c3ccccc3c2-c2nc3ccccc3o2)cc1 target_desc="HCT-116 colon" classification="0 (no)"
molecule=CCOC(=O)c1cc(C(=O)c2cc(OC)cc(OC)c2)n2ncc3ccccc3c12 target_desc="HCT-116 colon" classification="1 (yes)"
molecule=Cn1cnc([N+](=O)[O-])c1/C=C1\Oc2ccc(Br)cc2C1=O target_desc="HCT-116 colon" classification="0 (no)"
molecule="COC1OC(COS(=O)OC)C(O)C(O)C1OS(=O)OC (centres undefined)" target_desc="HCT-116 colon" classification="0 (no)"
molecule=NNC(=O)Oc1c(Cl)cc(Cl)cc1[N+](=O)[O-] target_desc="HCT-116 colon" classification="0 (no)"
molecule=O=C(CC(CC(=O)c1ccccc1)c1ccccc1O)c1ccccc1 target_desc="HCT-116 colon" classification="0 (no)"
molecule=O=C(Nc1ccccc1)Nc1ncnc2c1ncn2-c1ccccc1 target_desc="HCT-116 colon" classification="0 (no)"
molecule=COC(=O)CC[C@@H](C)[C@H]1CC[C@H]2[C@@H]3CC[C@@H]4C[C@H](O)CC[C@]4(C)[C@H]3C[C@H](O)[C@]12C target_desc="HCT-116 colon" classification="0 (no)"
molecule=CCOC(=O)c1sc2ncnc(Nc3ccc4c(cnn4C(=O)Nc4ccccc4)c3)c2c1C target_desc="HCT-116 colon" classification="0 (no)"
molecule=COc1ccc(C(=O)N/N=C/c2cc(C(F)(F)F)ccc2Cl)cc1 target_desc="HCT-116 colon" classification="0 (no)"
molecule=CC(=O)N[C@H](C(=O)N[C@@H](CCCNC(=N)N)C(=O)N[C@@H](CCCCN)C(=O)N[C@@H](CCCNC(=N)N)C(=O)N[C@]1(C)CCC/C=C\CCC[C@@](C)(C(=O)N[C@@H](CC(C)C)C(=O)N[C@@H](CC(C)C)C(=O)N[C@@H](CCC(N)=O)C(=O)N[C@@H](CCC(=O)O)C(=O)N[C@@H](CCCNC(=N)N)C(=O)N[C@@H](CCC(=O)O)C(=O)N[C@@H](CC(C)C)C(=O)N[C@H](C(=O)N[C@@H](CCC(=O)O)C(N)=O)C(C)C)NC(=O)[C@H](CCCNC(=N)N)NC(=O)[C@H](CC(C)C)NC1=O)C(C)C target_desc="HCT-116 colon" classification="0 (no)"

The reported measurements were obtained from PubChem BioAssay (NCI).
